Molecular target: SpsB (Staphylococcus aureus signal peptidase) (Staphylococcus aureus, UniProt P0A070)
Construct: This assay uses a suspension of Staphylococcus aureus cells as a source of SpsB instead of recombinant SpsB protein; endogenous in cells; host or cells: S. aureus, USA300 background, overexpressing SpsB (whole-cell suspension from frozen pellets)
Sequence (P0A070 whole entry): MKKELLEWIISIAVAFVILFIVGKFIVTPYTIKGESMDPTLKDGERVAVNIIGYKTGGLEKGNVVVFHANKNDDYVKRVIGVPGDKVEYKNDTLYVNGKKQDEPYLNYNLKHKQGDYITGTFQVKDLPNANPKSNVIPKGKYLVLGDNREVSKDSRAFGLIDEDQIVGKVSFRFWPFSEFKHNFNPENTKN
Assay: cell-based
Type: biochemical
Conditions: SpsB IC50, whole-cell S. aureus (USA300 background, overexpressing SpsB) as SpsB source; fluorogenic peptide substrate, kinetic read 30 min
Below: a set of entries, each annotated with reported IC50.
measured metric: IC50

compound structure string	system	measured metric	value observed
CCCCCCCCc1ccc(C(=O)N[C@@H](CCO)C(=O)N(C)[C@@H]2C(=O)N[C@@H](C)C(=O)N[C@H](C(=O)NCC#N)Cc3ccc(OCCN)c(c3)-c3cc2ccc3OCCN)c(C)c1	SpsB (Staphylococcus aureus signal peptidase) (Staphylococcus aureus, UniProt P0A070)	IC50	900 pM
C[C@@H]1NC(=O)[C@@H](N(C)C(=O)[C@H](CCN)NC(=O)c2ccc(-c3ccc4c(c3)CCCC4)cc2)c2ccc(OCCN)c(c2)-c2cc(ccc2OCCN)C[C@@H](C(=O)NCC#N)NC1=O	SpsB (Staphylococcus aureus signal peptidase) (Staphylococcus aureus, UniProt P0A070)	IC50	930 pM
Cc1cc(CC(C)C)ccc1C(=O)N[C@@H](CCN)C(=O)N(C)[C@@H]1C(=O)N[C@@H](C)C(=O)N[C@H](C(=O)NCC#N)Cc2ccc(OCCN)c(c2)-c2cc1ccc2OCCN	SpsB (Staphylococcus aureus signal peptidase) (Staphylococcus aureus, UniProt P0A070)	IC50	880 pM
CCCCCCCCCCNCCC(=O)N(C)[C@@H]1C(=O)N[C@@H](C)C(=O)N[C@H](C(=O)NCC#N)Cc2ccc(O)c(c2)-c2cc1ccc2OCCN	SpsB (Staphylococcus aureus signal peptidase) (Staphylococcus aureus, UniProt P0A070)	IC50	840 pM
CCCCCCCCCNC(=O)CCC(=O)N[C@@H](CCN)C(=O)N(C)[C@@H]1C(=O)N[C@@H](C)C(=O)N[C@H](C(=O)NCC#N)Cc2ccc(OCCN)c(c2)-c2cc1ccc2OCCN	SpsB (Staphylococcus aureus signal peptidase) (Staphylococcus aureus, UniProt P0A070)	IC50	470 pM
CCCCCCCCOc1ccc(C(=O)N[C@@H](CCN)C(=O)N(C)[C@@H]2C(=O)N[C@@H](C)C(=O)N[C@H](C(=O)NCC#N)Cc3ccc(OCCN)c(c3)-c3cc2ccc3OCCN)c(Cl)c1	SpsB (Staphylococcus aureus signal peptidase) (Staphylococcus aureus, UniProt P0A070)	IC50	700 pM
C[C@@H]1NC(=O)[C@@H](N(C)C(=O)[C@H](CCCCN)NC(=O)c2ccc(/C=C/c3ccccc3)cc2)c2ccc(OCCN)c(c2)-c2cc(ccc2OCCN)C[C@@H](C(=O)NCC#N)NC1=O	SpsB (Staphylococcus aureus signal peptidase) (Staphylococcus aureus, UniProt P0A070)	IC50	960 pM
CCCc1ccc(-c2nc(C)c(C(=O)N[C@@H](CCN)C(=O)N(C)[C@@H]3C(=O)N[C@@H](C)C(=O)N[C@H](C(=O)NCC#N)Cc4ccc(OCCN)c(c4)-c4cc3ccc4OCCN)c(C)n2)cc1	SpsB (Staphylococcus aureus signal peptidase) (Staphylococcus aureus, UniProt P0A070)	IC50	610 pM
C[C@@H]1NC(=O)[C@@H](N(C)C(=O)[C@H](CCN)NC(=O)c2ccc(-c3ccc(-c4ccccc4)cc3)cc2)c2ccc(OCCN)c(c2)-c2cc(ccc2OCCN)C[C@@H](C(=O)NCC#N)NC1=O	SpsB (Staphylococcus aureus signal peptidase) (Staphylococcus aureus, UniProt P0A070)	IC50	1600 pM
CCCCCCCc1ccc(C(=O)N[C@@H](CN)C(=O)N(C)[C@@H]2C(=O)N[C@@H](C)C(=O)N[C@H](C(=O)NCC#N)Cc3ccc(OCCN)c(c3)-c3cc2ccc3OCCN)c(C)c1	SpsB (Staphylococcus aureus signal peptidase) (Staphylococcus aureus, UniProt P0A070)	IC50	660 pM
